# System: RAW-Dual (murine macrophage reporter line)
# assay-overview: NF-kB reporter (SEAP) activity fold change vs agonist alone; higher = enhanced NF-kB activity
# condition-info: modulator concentration 10 µM; agonist: LPS 0.1 ug/mL
Each entry gets -1 if its NF-kB reporter stays under 1, and 1 if its NF-kB reporter is 1 or above.

Does NF-kB reporter meet or surpass 1 for `CCOCC(=O)Nc1nc2c(C(F)(F)F)cccc2s1` ? -1

Does NF-kB reporter meet or surpass 1 for `CCOc1ccccc1OCCCCOc1cccc(C)c1` ? -1

Does NF-kB reporter meet or surpass 1 for Cc1cccc(CN2CCN(C(c3ccccc3)c3ccc(Cl)cc3)CC2)c1.Cl.Cl (configuration not stated) ? -1

Does NF-kB reporter meet or surpass 1 for O=C(NCC(O)Cc1ccccc1)Nc1ccc(F)cc1 (configuration not stated) ? -1

Does NF-kB reporter meet or surpass 1 for `Cc1ccc(NC(=O)CSc2nc3ccccc3[nH]2)cc1.Cl` ? 1

Does NF-kB reporter meet or surpass 1 for `COc1ccc2cc(Br)ccc2c1CC(=O)O` ? -1

Does NF-kB reporter meet or surpass 1 for `Cc1cc(OCC(=O)NC2CC(C)(C)NC(C)(C)C2)ccc1Br` ? 1

---

# System: RAW-Dual (murine macrophage reporter line)
# assay-overview: IRF reporter (Lucia luciferase) activity fold change vs agonist alone; higher = enhanced IRF activity
# condition-info: modulator concentration 10 µM; agonist: MPLA […]
Give IRF reporter for every item shown.
When you answer, write just the number.

Name the reported IRF reporter value associated with the compound CS(=O)(=O)C1CCN(C(=O)C2(c3ccccc3)CCOCC2)C1 (stereo unspecified) 1.03

Name the reported IRF reporter value associated with the compound COCC(C)NC(=O)c1ccc(Cl)c(Cl)c1 (stereo unspecified) 0.992

Name the reported IRF reporter value associated with the compound `COc1ccc(NC(=O)CN(c2ccc(C)c(C)c2)S(C)(=O)=O)cc1` 1.53

Name the reported IRF reporter value associated with the compound `N[C@@H](CSCCCO)C(=O)O` 0.971

Name the reported IRF reporter value associated with the compound `O=C(c1cc2cc(F)ccc2s1)N1CCc2ncncc2C1` 1.12

Name the reported IRF reporter value associated with the compound `COc1ccc(Cn2cc3c(-c4ccc(F)cc4)nnc-3c3cc(OC)c(OC)cc32)cc1` 3

---

Give NF-kB reporter for every item shown.
# Test system: RAW-Dual (murine macrophage reporter line)
# assay-overview: NF-kB reporter (SEAP) activity fold change vs agonist alone; higher = enhanced NF-kB activity
# condition-info: modulator concentration 10 µM; agonist: MPLA […]

Name the reported NF-kB reporter value associated with the compound CCN1CCN(c2nc3c(c(=O)[nH]c(=O)n3C)n2CC(O)COc2cc(C)ccc2C(C)C)CC1 (stereo unspecified) 1.2

Name the reported NF-kB reporter value associated with the compound `O=C(Nc1cc(C(F)(F)F)cc(C(F)(F)F)c1)c1cc2ccccc2o1` 0.952

Name the reported NF-kB reporter value associated with the compound `O=C(O[C@H]1C[C@H]2CC3C[C@@H](C1)N2CC3=O)c1c[nH]c2ccccc12` 0.693

Name the reported NF-kB reporter value associated with the compound `CC(=O)Nc1ccc2nc(NC(=O)c3ccco3)sc2c1` 0.95

Name the reported NF-kB reporter value associated with the compound `O=c1c(CN2CCC(O)(c3ccc(Br)cc3)CC2)coc2ccccc12` 1.07

Name the reported NF-kB reporter value associated with the compound `COc1ccc(Cn2c(SC)nc3c(c2=O)C2(CCCCC2)Cc2ccccc2-3)cc1` 1.15

Name the reported NF-kB reporter value associated with the compound `O=C(CCCn1nc(-c2ccc(F)cc2)ccc1=O)Nc1ccc(C(F)(F)F)cc1` 1.05

Name the reported NF-kB reporter value associated with the compound CCC(C)(C)C(=O)OC1CC(C)C=C2C=CC(C)C(CCC3CC(O)CC(=O)O3)C21 (stereo unspecified) 1.91

Name the reported NF-kB reporter value associated with the compound `OCCN1CCN(CCCN2c3ccccc3Sc3ccc(Cl)cc32)CC1` 0.894

Name the reported NF-kB reporter value associated with the compound `COc1cc(C(=O)Nc2ccc(-c3ccc(N4CCC(C)CC4)nn3)cc2)cc(OC)c1OC` 0.754

Name the reported NF-kB reporter value associated with the compound CSc1ccc(C2Nc3ccccc3-c3nnc(SCc4ccc(C)cc4)nc3O2)cc1 (stereo unspecified) 1.19

Name the reported NF-kB reporter value associated with the compound `CC(C)c1cc(-c2n[nH]c(=O)n2-c2ccc3c(ccn3C)c2)c(O)cc1O` 0.681

Name the reported NF-kB reporter value associated with the compound `O=C(Cn1nc(S(=O)(=O)c2cccc(F)c2)ccc1=O)N1CCc2ccccc2C1` 0.921

Name the reported NF-kB reporter value associated with the compound `O=C(Nc1ccc(Br)cc1)c1cccc(S(=O)(=O)NC2CCCCC2)c1` 1.24

Name the reported NF-kB reporter value associated with the compound `Cn1ccnc1Sc1nc(Nc2cccc(Cl)c2)nc(N2CCOCC2)n1` 1.21

Name the reported NF-kB reporter value associated with the compound `Oc1ccc(Cl)cc1-c1nc2ccccc2s1` 0.967

Name the reported NF-kB reporter value associated with the compound `COc1ccc(CNc2nc(N3CCC[C@H]3CO)ncc2C(=O)NCc2ncccn2)cc1Cl` 0.771

Name the reported NF-kB reporter value associated with the compound `Cc1ccc(/C(=C\CN2CCCC2)c2ccccn2)cc1.Cl.O` 1.05

Name the reported NF-kB reporter value associated with the compound O=C(c1ccc(Cl)cc1)N(c1ccccc1)C1C=CS(=O)(=O)C1 (stereo unspecified) 0.823

Name the reported NF-kB reporter value associated with the compound CCC(NC(C)C)C(O)c1ccc(O)c(O)c1 (stereo unspecified) [Prestw-749] 1.34

Name the reported NF-kB reporter value associated with the compound `Cc1ccc(COc2cccc(C=C3SC(=S)NC3=O)c2)cc1` 0.992
